Target: UniProt:P22001
Sequence (P22001 whole entry): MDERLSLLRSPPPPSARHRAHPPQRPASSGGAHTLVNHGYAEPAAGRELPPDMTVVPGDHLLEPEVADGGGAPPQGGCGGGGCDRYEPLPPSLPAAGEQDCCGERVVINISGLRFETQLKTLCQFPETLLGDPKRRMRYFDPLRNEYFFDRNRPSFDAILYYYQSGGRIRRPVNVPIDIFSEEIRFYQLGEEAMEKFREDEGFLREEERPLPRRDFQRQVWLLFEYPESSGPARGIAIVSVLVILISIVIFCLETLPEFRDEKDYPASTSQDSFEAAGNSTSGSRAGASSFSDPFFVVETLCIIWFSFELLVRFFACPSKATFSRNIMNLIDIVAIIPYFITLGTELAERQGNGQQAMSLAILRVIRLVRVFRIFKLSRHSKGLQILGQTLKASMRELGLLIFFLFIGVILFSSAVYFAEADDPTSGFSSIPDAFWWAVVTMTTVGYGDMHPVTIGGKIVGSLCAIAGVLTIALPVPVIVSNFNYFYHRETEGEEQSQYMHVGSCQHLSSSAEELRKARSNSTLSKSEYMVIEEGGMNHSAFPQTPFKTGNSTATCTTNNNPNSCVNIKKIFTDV
Assay: Kv1.3 potency evaluation, automated patch clamp electrophysiology (QPatch HT) in CHO-Kv1.3 cells
Conditions: whole-cell QPatch HT, % inhibition of charge, step to +30 mV, four concentrations, N≥3 cells, read-out: hKv1.3 IC50
Exercise: for every item that follows, state its recorded pIC50.
One number for each entry, as −log10 of the molar value.

INSERT INTO measurements (compound, endpoint_label, reported_result) VALUES
  ('CC(NC(=O)[C@@]1(C)CN=C(C23CC(N(Cc4ccc(C(F)(F)F)cc4)S(=O)(=O)c4ccc(F)cc4)(C2)C3)N1)C1CCC1 (mixture of isomers) [Example 275]', 'pIC50', 6.24);

// for each compound in input: emit pIC50
1. CC1(C)N=C(C23CC(N(Cc4ccc(Cl)c(F)c4)S(=O)(=O)c4ccccc4)(C2)C3)N[C@H]1C(=O)N1CCC1 (mixture of isomers) [Example 282]
2. CC1(C)N=C(C23CC(N(Cc4ccc(Cl)cc4)S(=O)(=O)c4ccccc4O)(C2)C3)N[C@H]1C(=O)NCCC(F)(F)F (mixture of isomers) [Example 180]
3. O=C(NCC1CCC1)C1(Cc2ccccc2)CN=C(C23CC(N(Cc4ccc(C(F)(F)F)cc4)S(=O)(=O)c4ccc(F)cc4)(C2)C3)N1 (centres unmarked) [Example 279]
4. CC1(C)N=C(C23CC(N(Cc4ccc(Cl)c(Cl)c4)S(=O)(=O)c4ccccc4O)(C2)C3)N[C@H]1C(=O)NCCC(F)(F)F (mixture of isomers) [Example 226]
5. CC1(C)N=C(C23CC(N(Cc4cccc(F)c4)S(=O)(=O)c4ccccc4)(C2)C3)N[C@H]1C(=O)NCCC(F)(F)F (mixture of isomers) [Example 40]
6. CCCC1(C(=O)NC(C)C)CN=C(C23CC(N(Cc4ccc(C(F)(F)F)cc4)S(=O)(=O)c4ccc(F)cc4)(C2)C3)N1 (centres unmarked) [Example 182]

1. 6.15
2. 6.97
3. 6.22
4. 6.73
5. 7.34
6. 6.97

// for each compound in input: emit pIC50
1. CC1(C)CC(CNC(=O)[C@@]2(C)CN=C(C34CC(N(Cc5ccc(C(F)(F)F)cc5)S(=O)(=O)c5ccc(F)cc5)(C3)C4)N2)C1 (mixture of isomers) [Example 289]
2. CN(CCC(F)(F)F)C(=O)[C@@H]1NC(C23CC(N(Cc4ccc(Cl)c(Cl)c4)S(=O)(=O)CCC(F)F)(C2)C3)=NC1(C)C (mixture of isomers) [Example 207]
3. C[C@]1(C(=O)N2CCCC2)CN=C(C23CC(N(Cc4ccc(C(F)(F)F)cc4)S(=O)(=O)c4ccc(F)cc4)(C2)C3)N1 (mixture of isomers) [Example 262]
4. CC1(C)N=C(C23CC(N(Cc4ccc(Cl)c(F)c4)S(=O)(=O)c4ccccc4)(C2)C3)N[C@H]1C(=O)NC12CC(C1)C2 [Example 1]

1: 5.98; 2: 6.86; 3: 6.40; 4: 7.46
